biological target: PI3K-γ (Homo sapiens); assay: PI3K-gamma fluorescence polarization assay; details: read-out: IC50 PI3Kγ
Sequence (P48736 whole entry, species assumed): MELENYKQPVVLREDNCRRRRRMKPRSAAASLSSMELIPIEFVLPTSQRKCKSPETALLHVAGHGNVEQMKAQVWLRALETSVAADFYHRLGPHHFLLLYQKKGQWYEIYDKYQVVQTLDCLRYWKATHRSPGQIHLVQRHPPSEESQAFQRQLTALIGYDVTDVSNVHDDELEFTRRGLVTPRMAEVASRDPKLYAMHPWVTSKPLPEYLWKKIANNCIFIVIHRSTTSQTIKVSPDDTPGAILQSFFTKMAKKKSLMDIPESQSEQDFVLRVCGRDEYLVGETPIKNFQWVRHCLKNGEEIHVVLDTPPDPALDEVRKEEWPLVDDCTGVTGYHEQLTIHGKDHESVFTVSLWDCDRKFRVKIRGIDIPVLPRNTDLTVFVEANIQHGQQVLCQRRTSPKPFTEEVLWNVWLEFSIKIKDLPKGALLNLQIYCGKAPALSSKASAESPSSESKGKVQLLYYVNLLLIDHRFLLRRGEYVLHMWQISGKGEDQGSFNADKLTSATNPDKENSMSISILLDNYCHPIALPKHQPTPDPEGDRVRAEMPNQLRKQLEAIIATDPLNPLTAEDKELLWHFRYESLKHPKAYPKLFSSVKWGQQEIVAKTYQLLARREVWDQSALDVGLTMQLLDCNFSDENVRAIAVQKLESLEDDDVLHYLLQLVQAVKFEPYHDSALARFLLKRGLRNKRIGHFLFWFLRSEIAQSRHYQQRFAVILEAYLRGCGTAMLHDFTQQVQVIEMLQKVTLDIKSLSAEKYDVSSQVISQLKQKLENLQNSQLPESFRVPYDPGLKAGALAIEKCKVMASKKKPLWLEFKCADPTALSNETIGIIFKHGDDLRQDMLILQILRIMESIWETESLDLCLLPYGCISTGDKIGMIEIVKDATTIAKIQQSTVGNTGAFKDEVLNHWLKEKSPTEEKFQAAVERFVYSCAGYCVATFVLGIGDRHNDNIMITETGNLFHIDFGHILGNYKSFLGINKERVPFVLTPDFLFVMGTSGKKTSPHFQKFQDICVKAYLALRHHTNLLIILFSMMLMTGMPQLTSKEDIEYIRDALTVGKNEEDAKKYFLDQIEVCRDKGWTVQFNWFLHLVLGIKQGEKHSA
Kindly supply the reported IC50 values for the records listed here.
Answers are plain numbers, in nM.

I would be grateful if you could provide IC50 for each of the following entries.
1. O=C(Nc1ccncc1)Nc1ccc(-c2nc(NC3CNC3)nc(N3CCOCC3)n2)cc1
2. CC(C)(C)OC(=O)N1CCC(Oc2nc(-c3ccc(NC(=O)Nc4ccncc4)cc3)nc(N3CCOCC3)n2)CC1

142
199

Quick batch: IC50 for everything below.
1. O=C(Nc1ccc(C(=O)N2CCNCC2)cc1)Nc1ccc(-c2nc(N3CCOCC3)nc(N3CCOCC3)n2)cc1
2. COC(=O)c1ccc(NC(=O)Nc2ccc(-c3nc(C4=CCOCC4)nc(N4CCOCC4)n3)cc2)cc1
3. CN1CCN(C(=O)c2ccc(NC(=O)Nc3ccc(-c4nc(NS(=O)(=O)c5ccccc5)nc(N5CCOCC5)n4)cc3)cc2)CC1
4. CN(C)CCCNC(=O)c1ccc(NC(=O)Nc2ccc(-c3nc(N4CCOCC4)nc(N4C5CCC4COC5)n3)cc2)cc1

4
294
174
41.5

Look at this compound and give its reported IC50. COCCNC(=O)c1ccc(NC(=O)Nc2ccc(-c3nc(-c4ccc(C)cc4)nc(N4CCOCC4)n3)cc2)cc1
374
